# System: Alopecurus myosuroides (ALOMY)
# assay_protocol: Post-emergence biological efficacy, glasshouse pot test
# Type: in vivo
# measurement_parameters: 312 h, Rate 1,000 g/ha, post-emergence spray, evaluated after 13 days (100=total damage to plant; 0=no damage to plant), read-out: Percentage damage caused to weed species, post-emergence, ALOMY
property_measured: pest or weed control at 1000 g/ha

- COC(=O)c1nc(C2CC2)nc(N(C)Cc2ccc([N+](=O)[O-])cc2)c1Cl: 50%
- CCN(Cc1ccco1)c1nc(C2CC2)nc(C(=O)OC)c1Cl: 40%
- COC(=O)c1nc(C2CC2)nc(N(Cc2ccccc2)Cc2ccccc2)c1Cl: 10%
- COC(=O)c1nc(C2CC2)nc(N(Cc2ccccc2)CC(O)c2ccccc2)c1Cl (centres unmarked): 20%
- C=CCN(Cc1cc(Cl)ccc1OC)c1nc(C2CC2)nc(C(=O)OC)c1Cl: 0%
- COC(=O)c1nc(-c2ccc(Cl)cc2)nc(NC2CC2)c1Cl: 40%
- COC(=O)c1nc(C2CC2)nc(N(C)Cc2ccc(F)cc2)c1Cl: 20%
- COC(=O)c1nc(C2CC2)nc(N(C)Cc2c(Cl)cccc2Cl)c1Cl: 0%
- COC(=O)c1nc(C2CC2)nc(N(C)Cc2ccc(OC)cc2)c1Cl: 20%
- COC(=O)c1nc(C2CC2)nc(N(C)Cc2ccc(Br)cc2)c1Cl: 30%
- CCN(Cc1ccc(C)o1)c1nc(C2CC2)nc(C(=O)OC)c1Cl: 30%
- COC(=O)c1nc(-c2ccc(C)c([N+](=O)[O-])c2)nc(NCc2ccco2)c1Cl: 0%
- COC(=O)c1nc(C2CC2)nc(N(C)Cc2cccc(C(F)(F)F)c2)c1Cl: 40%
- COC(=O)c1nc(C2CC2)nc(N(C)Cc2ccc(C(F)(F)F)cc2)c1Cl: 20%
- CCN(Cc1ccnc(C)n1)c1nc(C2CC2)nc(C(=O)OC)c1Cl: 0%
- COC(=O)c1nc(-c2ccc(Cl)c(F)c2Cl)nc(NCc2ccco2)c1Cl: 60%
- COC(=O)c1nc(-c2ccc(Cl)c(C(F)(F)F)c2)nc(NCc2ccco2)c1Cl: 10%
- C=CCN(Cc1ccc(F)cc1)c1nc(C2CC2)nc(C(=O)OC)c1Cl: 20%
- COC(=O)c1nc(-c2ccc(Cl)c(Cl)c2F)nc(NCc2ccco2)c1Cl: 50%
- COC(=O)c1nc(C2CC2)nc(N(C)Cc2ccccc2[N+](=O)[O-])c1Cl: 50%
- CCN(c1nc(C2CC2)nc(C(=O)OC)c1Cl)C1CCCCC1: 0%
- COC(=O)c1nc(-c2ccc(OC)cc2)nc(NCc2ccco2)c1Cl: 0%
- COC(=O)c1nc(-c2cccc(OC)c2F)nc(NCc2ccco2)c1Cl: 0%
- COC(=O)c1nc(-c2cc(F)c(F)cc2F)nc(NCc2ccco2)c1Cl: 10%
- COC(=O)c1nc(C2CC2)nc(N(C)Cc2ccc(Cl)c(Cl)c2)c1Cl: 30%
- CCCOC(=O)c1nc(C2CC2)nc(NCc2ccco2)c1Cl: 40%
- COC(=O)c1nc(-c2ccc(OC)cc2OC)nc(NCc2ccco2)c1Cl: 0%
- CCN(Cc1ccc(OC)c(OC)c1)c1nc(C2CC2)nc(C(=O)OC)c1Cl: 30%
- COC(=O)c1nc(-c2ccc(Cl)cc2)nc(NCc2ccco2)c1Cl: 50%
- COC(=O)c1nc(-c2ccc(Cl)c(C)c2)nc(NCc2ccco2)c1Cl: 10%
- COC(=O)c1nc(-c2ccc(F)c(Cl)c2)nc(NCc2ccco2)c1Cl: 20%
- COC(=O)c1nc(-c2ccc(Cl)c([N+](=O)[O-])c2)nc(NCc2ccco2)c1Cl: 0%
- COC(=O)c1nc(C2CC2)nc(N(CCO)Cc2ccc(Cl)nc2)c1Cl: 0%
- COC(=O)c1nc(-c2ccc(Cl)cc2F)nc(NCc2ccco2)c1Cl: 60%
- C=Cc1c(NCc2ccco2)nc(C2CC2)nc1C(=O)OC: 10%

The origin of these recorded values is patent US20110086759A1.
